The origin of these recorded values is paper PMC5540273.

system: BMPR1A; details: concentration: 1 μM, replicates: in singlicate; n = 1;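 also: KINOMEscan kinase panel screen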
readout: %Inh (%)
All answers are understood in %, so give the number only.

>>> recordedresult("COc1cccc(-n2cnc3c(N)ncnc32)c1 [SKF-97416]")
17

Value of measured %Inh for the entry CCC(=O)c1c(-c2ccccc2)c2cc(Cl)ccc2c(=O)n1Cc1ccc(C(=O)O)cc1 : 0

Documented %Inh of COc1cc2ncn(-c3cc(OCc4ccncc4Br)c(C(N)=O)s3)c2cc1OC [GW854278] : 8

# %Inh (compound: Cl.c1ccc(Cn2cnc3cc(Nc4ncnc5ccccc45)ccc32)cc1 [GW272142] ) is 0

get_value(item= CCc1ccc(-c2ccc3c(c2)-c2nn(C)cc2S(=O)(=O)N3C)cc1 , readout=%Inh) returns 0

###

Quick reference: %Inh of the listed items.
test system: YSK4; construct: gene MAP3K19; conditions: concentration: 1 μM, replicates: in singlicate; n = 1
Number in %, nothing else.

Known %Inh results, listed for orientation:
>>> recordedresult("O=C1NC(=O)C(c2ccccc2)=C1Nc1cccc(O)c1")
0
>>> recordedresult("Cn1c(=O)c(F)c(Nc2ccc(I)cc2F)c2c(=O)n(OC[C@H](O)CO)cnc21")
0
>>> recordedresult("O=C(NCc1cccs1)c1cc(C(=O)c2c(Cl)cccc2Cl)c[nH]1")
0
>>> recordedresult("Nc1ncnc2c1ncn2-c1cccc(F)c1")
40
>>> recordedresult("Cc1cccc(-c2cc(-c3c[nH]nc3-c3ccccn3)ccn2)c1")
36

The measured %Inh associated with O=C(Nc1ccc2c(c1)OCO2)NC1CCN(c2ccnc(NCc3ccc(F)cc3)n2)CC1 reads 0

So for Cl.NS(=O)(=O)c1cccc(Nc2cc(-c3ccc(F)cc3)n[nH]2)c1 , the logged %Inh turned out to be 0

Value of measured %Inh for the entry Nc1ncnc2c1ncn2-c1cccc2ccccc12 : 23

The recorded %Inh for entry COc1cc2ncn(-c3cc(OCc4ccncc4)c(C(N)=O)s3)c2cc1OC equals 30

Query Cc1nnc(-c2ccc3ncn(-c4ccc(S(C)=O)cc4)c3c2)o1 (stereo not shown) yields %Inh of 21

###

tested on: DCAMKL2; construct: gene DCLK2; conditions: concentration: 1 μM, replicates: in singlicate; n = 1
readout: %Inh

>>> recordedresult("COc1cccc(C2=C(N(C)c3ccccc3)C(=O)NC2=O)c1 [SB-334865]")
"0%"

Data point: CCc1nc(-c2cccc(C)c2)c(-c2ccncc2)s1 ; %Inh = 2%

###

tested on: SRMS; conditions: concentration: 1 μM, replicates: in singlicate; n = 1
readout: %Inh (%)
Report only the number, with the unit % understood.

Illustrative cases are given below, each with its answer.
>>> recordedresult("Fc1cccc(CSc2nnc(-c3ccc4c(c3)CCO4)o2)c1")
0
>>> recordedresult("Cc1nnc(-c2ccc(C)c(-c3ccc(C(=O)O)cc3)c2)o1")
0
>>> recordedresult("COC(=O)c1c(-c2ccccc2)c2cc(Br)ccc2c(=O)n1Cc1ccc(NC(=O)CCC(=O)O)cc1")
0
>>> recordedresult("COc1cc2nccc(Nc3cccc(Oc4ccccc4)c3)c2cc1OC.Cl")
55

Next item in the queue.
Recorded %Inh (compound Cc1cccc(-c2cc(-c3c[nH]nc3-c3ccccn3)ccn2)c1 ): 0

###

system: BRK; construct: gene PTK6; conditions: concentration: 1 μM, replicates: in singlicate; n = 1
readout: %Inh (%)
Field format: number, assumed %, no unit text.

// solved cases for %Inh follow
>>> recordedresult("O=C(Nc1n[nH]c2cc(-c3ccccc3F)ccc12)C1CC1 [SB-733371]")
0
>>> recordedresult("COc1cc2nccc(Nc3cccc(Oc4ccccc4)c3)c2cc1OC.Cl [GW284543]")
60
>>> recordedresult("Nc1ncnc2c1ncn2-c1ccc(Cl)cc1 [AH2635]")
0
>>> recordedresult("COc1cc(Nc2ccnc3ccc(C(F)(F)F)cc23)cc(OC)c1OC [GW577382]")
8
>>> recordedresult("Cc1nc(N(C)[C@H]2CN(C(=O)CC#N)CC[C@H]2C)c2cc[nH]c2n1")
0
>>> recordedresult("CCCNC(=O)Nc1ccc(Oc2ncnc3ccn(C)c23)cc1")
0
>>> recordedresult("CCC(=O)c1c(-c2ccccc2)c2cc(Cl)ccc2c(=O)n1Cc1cc(S(C)(=O)=O)n(CC(F)F)n1")
0
>>> recordedresult("CN1C(=O)C(Nc2cc(Cl)c(O)c(Cl)c2)=C(c2ccc(Cl)cc2)C1=O [SB-404321]")
0

Now take the following compound into account.
Entry CCn1c(-c2ccoc2)nc2cnccc21 [SB-733887] — recorded %Inh = 0

###

test system: ABL1-nonphosphorylated; conditions: concentration: 1 μM, replicates: in singlicate; n = 1
Catalogue of %Inh readings, one per entry.
Numbers only; they are read as %.

>>> recordedresult("Cl.c1ccc(Cn2cnc3cc(Nc4ncnc5ccccc45)ccc32)cc1 [GW272142]")
0
>>> recordedresult("Cn1c(=O)c(F)c(Nc2ccc(I)cc2F)c2c(=O)n(OC[C@H](O)CO)cnc21")
54
>>> recordedresult("Nc1ncnc2c1ncn2-c1ccc(Cl)cc1 [AH2635]")
0
>>> recordedresult("COc1cc(OC)cc(-c2cc3cnc(N)nc3nc2NC(=O)NC(C)(C)C)c1")
39
>>> recordedresult("O=C(Nc1ccc2c(c1)OCO2)NC1CCN(c2ccnc(NCc3ccc(F)cc3)n2)CC1 [GSK1379859]")
0

Cc1cc(Nc2nc(-c3cccc(C)n3)nc3ccccc23)ccn1 [GW872411] has a reported %Inh of 52

Value of measured %Inh for the entry COc1cc2nccc(Nc3cccc(Oc4ccccc4)c3)c2cc1OC.Cl [GW284543] : 0

Entry FC(F)(F)c1ccc(-c2ncn(CCCN3CCOCC3)c2-c2ccncc2)cc1 [SB-217780] ; %Inh = 44

%Inh for Nc1n[nH]c2ncc(-c3ccccc3)cc12 [SB-517081] is 0

Record O=C(NCc1cccs1)c1cc(C(=O)c2c(Cl)cccc2Cl)c[nH]1 [GW823670] . Reported %Inh: 18

What the record says about O=C1NC(=O)C(c2ccccc2)=C1Nc1cccc(O)c1 [SB-390534] : %Inh is 22

The recorded %Inh for Nc1nc(N)c2nc(-c3ccccc3)[nH]c2n1 [SKF-12778] is 18

The molecule identified as Nc1ncnc2c1ncn2-c1cccc(F)c1 [SKF-97560] registered its %Inh at 9

Looking up Cc1ccccc1COc1cc(-n2cnc3cc(Cl)ccc32)sc1C(N)=O [GW813349] , I see its %Inh listed as 9

For this molecule ( CCCC(=O)Nc1n[nH]c2ncc(-c3cccc4ccccc34)cc12 [SB-642057] ), measured %Inh is 0

Record Nc1nccc2scc(-c3ccc4c(c3)CCN4C(=O)Cc3ccccc3)c12 [GSK2576924] . Reported %Inh: 0

###

system: MINK; construct: gene MINK1; conditions: concentration: 1 μM, replicates: in singlicate; n = 1
readout: %Inh (%)
Numeric answer only, unit % assumed.

>>> recordedresult("FC(F)(F)c1ccc(-c2ncn(CCCN3CCOCC3)c2-c2ccncc2)cc1 [SB-217780]")
0
>>> recordedresult("Cc1cccc(-c2nc(Nc3ccc4c(cnn4C)c3)c3ccccc3n2)n1 [GW876731]")
16
>>> recordedresult("COc1cc2nccc(Nc3ccc(OCc4ccc(NC(C)=O)cc4)cc3)c2cc1OC.Cl [GW440135]")
70
>>> recordedresult("Nc1ncnc2c1ncn2-c1cccc2ccccc12 [SKF-97184]")
12
>>> recordedresult("Nc1nc(N)c2nc(-c3ccccc3)[nH]c2n1 [SKF-12778]")
0

Record summary for Cc1nnc(-c2ccc(C)c(-c3ccc(C(=O)O)cc3)c2)o1 [GW608005] : reported %Inh = 0

For COc1cc(Nc2nccc(N3CCC(NC(=O)C4COc5ccccc5O4)C3)n2)cc(OC)c1OC (stereo not shown) [GSK1379761] the compound record lists %Inh as 0

For record CCS(=O)(=O)c1ccc(OC)c(Nc2ncc(-c3ccc(F)cc3)o2)c1.Cl [GW591947] the listed %Inh is 0

Recorded %Inh (compound C[C@@H]1CC[C@H](C(=O)NC2CCCCC2)CN1c1cc(-c2ccc3c(N)n[nH]c3c2)nc(N)n1 [GSK2291363] ): 12

Data point: Nc1n[nH]c2ncc(-c3ccccc3)cc12 [SB-517081] ; %Inh = 11

According to the records, this compound O=C1NC(=O)C(c2ccccc2)=C1Nc1cccc(O)c1 [SB-390534] displays %Inh of 22

In plain terms, OCCCNc1nccc(-c2c(-c3cccc(C(F)(F)F)c3)nn3cc(C(F)(F)F)ccc23)n1 [GW630813] has a documented %Inh of 0

response.value for COc1cc(Nc2nccc(N3CCC(NC(=O)C(C)c4ccc(Cl)cc4)C3)n2)cc(OC)c1OC (stereo not shown) [GSK1379757] (field: %Inh) = 0

Entry Cc1nnc(-c2ccc3ncn(-c4ccc(S(C)=O)cc4)c3c2)o1 (stereo not shown) — recorded %Inh = 14

The reported %Inh of the compound COc1ccc(-c2cc3c(C)nc(N)nc3n([C@H]3CC[C@H](OCCO)CC3)c2=O)cn1 was 1

Quick note, %Inh for CN(C)c1cc(-c2ccc3c(N)n[nH]c3c2)nc(N)n1 [GSK2219329] landed at 0

Kindly note the recorded %Inh for CC(C)(C)c1ccc(C(=O)Nc2cn3cc(-c4ccccc4)ccc3n2)cc1 , which is 36

Please fill in: %Inh reported for COc1cc(OC)cc(-c2cc3cnc(N)nc3nc2NC(=O)NC(C)(C)C)c1 = 9

Lab note: measured %Inh of CCCNC(=O)Nc1ccc(Oc2ncnc3ccn(C)c23)cc1 was 1
